- Species: Homo sapiens
- Test summary: Selectivity ratio of Ki for delta opioid receptor (unknown origin) to Ki for kappa opioid receptor (unknown origin)
Quick list: Ratio Ki per entry.
Measure name: Ratio Ki

Molecule: Cl.O=C(N[C@@]12CCC(=O)[C@@H]3Oc4c(O)ccc5c4[C@@]31CCN(CC1CC1)[C@@H]2C5)c1ccccn1
Measure name: Ratio Ki
Quantitative readout: 263
--
Molecule: O=C(N[C@@]12CCC(=O)[C@@H]3Oc4c(O)ccc5c4[C@@]31CCN(CC1CC1)[C@@H]2C5)c1ccc2ccccc2n1
Measure name: Ratio Ki
Quantitative readout: 58
--
Molecule: O=C(N[C@@]12CCC(=O)[C@@H]3Oc4c(O)ccc5c4[C@@]31CCN(CC1CC1)[C@@H]2C5)c1cnc2ccccc2c1
Measure name: Ratio Ki
Quantitative readout: 11
--
Molecule: O=C(O[C@@]12CCC(=O)[C@@H]3Oc4c(O)ccc5c4[C@@]31CCN(CC1CC1)[C@@H]2C5)c1ccncc1
Measure name: Ratio Ki
Quantitative readout: 8.2
